Assay protocol: yeast display, Sf9 membrane polyspecificity reagent, FACS + sequencing; frameworks hold sequencing errors
Observable: polyreactivity (PSR sort gate)

QVQLVESGGGLVQAGGSLRLSCAASGRIFRSNAMGWYRQAPGKERELVATISRRGGSTYYADSVKGRFTISRDNAKNTVYLQMNSLKPEDTAVYYCNTRNSGSLDLYNTMDYWGQGTQVTVSS = high polyreactivity
QVQLVESGGGLVQAGGSLRLSCAASGSTFRYYAMGWYRQAPGKERELVAAISRSGGSTSYADSVKGRFTISRDNAKNTVYLQMNSLKPEDTAVYSCAARIYRKYYRYDYWGQGTQVTVSS = high polyreactivity
QVQLVESGGGLVQAGGSLRLSCAASGYIFRWYAMGWYRQAPGKERELVAAISGRGGRTYYADSVKGRFTISRDNAKNTVYLQMNSLKPEDTAVYYCAAVPVVQSQPTYYYWGQGTQVTVSS = high polyreactivity
